B1: library; a variant is named by its letters at N, in order (parent)
chain: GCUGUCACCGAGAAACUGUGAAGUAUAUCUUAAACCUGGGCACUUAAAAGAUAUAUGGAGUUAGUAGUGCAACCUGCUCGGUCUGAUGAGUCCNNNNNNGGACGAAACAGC

Variants of: B1
Assay procedure: normalized RNA/DNA level without ligand (relative to sTRSVctl = 100) (log10 (% of sTRSVctl)); HEK293T; ligand: cyclic di-GMP (c-di-GMP-II aptamer); higher = less ribozyme self-cleavage, higher mRNA level
Condition parameters: reporter: mCherry (pCS4076), ligand present: no
Measured metric: normalized RNA/DNA level without ligand (log10)
Answers are plain numbers.

Past entries and their recorded results:
[
  {
    "Variant key": "CUAAUG",
    "Reported": 1.49
  },
  {
    "Variant key": "UCUACG",
    "Reported": 1.74
  },
  {
    "Variant key": "AUGCGU",
    "Reported": 1.68
  },
  {
    "Variant key": "AAAAUG",
    "Reported": 1.5
  },
  {
    "Variant key": "AUUGCU",
    "Reported": 1.73
  }
]

# per-item lookup of normalized RNA/DNA level without ligand (log10); items listed below
1. CGGAUA
2. CUCAAG
3. ACGAAA

Response line:
1.19
1.67
1.35

# per-item lookup of normalized RNA/DNA level without ligand (log10); items listed below
1. ACAUAA
2. ACUCGA
3. GGGGUC
4. CGUAGG
5. AACGAC
6. ACUGCG
7. ACCGGU

Response line:
1: 1.39; 2: 1.52; 3: 1.65; 4: 1.71; 5: 1.6; 6: 1.73; 7: 1.53

# per-item lookup of normalized RNA/DNA level without ligand (log10); items listed below
1. ACAUAU
2. GCACUA
3. GCAGAU
4. CUGUCU
5. AUAGCC

Response line:
[1.45, 1.48, 1.43, 1.57, 1.76]
